Every entry's value here was drawn from paper PMC12736141.

- Test system: human hepatocellular carcinoma (HepG2)
- EXPERIMENT_DESCRIPTION: MTT cytotoxicity assay on HepG2 cells
- Type: cell-based
- ASSAY_CONDITIONS: Homo sapiens; HepG2 cells, 48 h, MTT
- Description: Compounds 5a–c were dissolved in dimethylsulfoxide (DMSO) at an initial concentration of 10 mM, which was diluted 10 times with the characteristic medium and placed on plates at final concentrations ranging from 12.5 to 150 μM. The cells were seeded on plates of 96 wells at a density of 1 × 10^4 cells per well and incubated for 48 h. […] The samples were read using an ELISA Reader (BioTek, Winooski, VT, USA) at 570 nm. […]

| COMPOUND | OUTPUT_UNIT | MODIFIER_SIGN | IC50 |
| --- | --- | --- | --- |
| CCn1c(SCC(=O)c2ccc(O)c(C(N)=O)c2)nc2ccccc2c1=O | µM | = | 25.5 |
| C=CCn1c(SCC(=O)c2ccc(O)c(C(N)=O)c2)nc2ccccc2c1=O | µM | > | 50 |
| NC(=O)c1cc(C(=O)CSc2nc3ccccc3c(=O)n2Cc2ccccc2)ccc1O | µM | = | 24.9 |
| CNC(=O)c1cc(Oc2ccc(NC(=O)Nc3ccc(Cl)c(C(F)(F)F)c3)cc2)ccn1 [Sorafenib, reference compound] | µM | = | 4.87 |
